Where these numbers come from: patent EP4725941A1

Target: MEK1 (Homo sapiens)
Construct: purchased Thermo Fisher Scientific Inc. (MEK1, CRAF); Carna Biosciences, Inc. (ERK2)
Sequence (Q02750 whole entry): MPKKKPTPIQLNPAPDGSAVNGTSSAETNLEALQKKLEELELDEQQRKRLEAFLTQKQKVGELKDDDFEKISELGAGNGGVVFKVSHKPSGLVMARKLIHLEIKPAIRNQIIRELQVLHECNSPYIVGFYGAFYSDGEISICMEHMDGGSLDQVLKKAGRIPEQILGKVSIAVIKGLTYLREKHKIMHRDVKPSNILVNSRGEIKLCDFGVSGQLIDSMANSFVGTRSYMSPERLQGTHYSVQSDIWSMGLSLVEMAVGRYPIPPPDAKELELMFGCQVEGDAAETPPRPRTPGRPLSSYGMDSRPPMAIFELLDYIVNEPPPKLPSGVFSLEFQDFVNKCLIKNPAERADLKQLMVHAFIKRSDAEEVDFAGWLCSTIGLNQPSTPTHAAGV
Test: MEK1-inhibiting activity, fluorescent polarization method (CRAF/MEK1/ERK2 cascade, IMAP)
Type: biochemical
Details: Table 3; read-out: MEK1 IC50
Protocol: The MEK1-inhibiting activity of the compounds listed in Table 3 below were evaluated by the fluorescent polarization method as described below.
measureName: log10(IC50) (log10 of the value in nM)
Use the decimal logarithm of IC50 (nM).

Some compounds with known log10(IC50) results, for comparison:
CNS(=O)(=O)Nc1nccc(Cc2cc(C(=O)NOCCO)c(Nc3ccc(I)cc3F)c(F)c2F)c1F [Compound B-1]: 0.30
COCCNS(=O)(=O)Nc1nccc(Cc2cc(C(=O)NC3CC3)c(Nc3ccc(I)cc3F)n(C)c2=O)c1F [Compound J-7]: 2.80
CNS(=O)(=O)Nc1nccc(Cc2cc(C(N)=O)c(Nc3ccc(C4CC4)cc3F)n(C)c2=O)c1F [Compound J-3]: 2.49
COCCNS(=O)(=O)Nc1nccc(Cc2cc(C(N)=O)c(Nc3ccc(I)cc3F)c(F)c2F)c1F [Compound A-33]: 1.00
NC(=O)c1cc(Cc2cccc(NS(=O)(=O)NC[C@H]3CCCO3)c2F)c(F)c(F)c1Nc1ccc(I)cc1F [Compound D-3]: 2.11
COCC1(S(=O)(=O)Nc2cccc(Cc3cc(C(N)=O)c(Nc4ccc(I)cc4F)c(F)c3F)c2F)CC1 [Compound E-19]: 2.52

log10(IC50) for NC(=O)c1cc(Cc2cccc(NS(N)(=O)=O)c2F)c(F)c(F)c1Nc1ccc(I)cc1F [Compound E-8] is 2.14

log10(IC50) for CONC(=O)c1cc(Cc2cccc(NS(N)(=O)=O)c2F)c(F)c(F)c1Nc1ccc(I)cc1F [Compound D-12] is 1.18

log10(IC50) for CCS(=O)(=O)Nc1nccc(Cn2cc(C(=O)NOC)c(Nc3ccc(I)cc3F)c(C)c2=O)c1F [Compound P-5] is 1.04

log10(IC50) for CNS(=O)(=O)Nc1nccc(Cc2cc(C(=O)NC3CC3C)c(Nc3ccc(I)cc3F)c(F)c2F)c1F (mixture of isomers) [Compound B-3] is 1.91

log10(IC50) for CNS(=O)(=O)Nc1cccc(Cc2cc(C(N)=O)c(Nc3ccc(I)cc3F)c(F)c2F)c1F [Compound E-7] is 2.52

log10(IC50) for CNS(=O)(=O)Nc1nccc(Cc2cc(C(=O)NOC)c(Nc3ccc(Br)cc3F)c(F)c2F)c1F [Compound G-3] is 1.18

log10(IC50) for CONC(=O)c1cc(Cc2ccnc(NS(C)(=O)=O)c2F)c(F)c(F)c1Nc1ccc(C2CC2)cc1F [Compound G-9] is 2.36

log10(IC50) for CC1(NS(=O)(=O)Nc2cccc(Cc3cc(C(=O)NC4CC4)c(Nc4ccc(I)cc4F)c(F)c3F)c2F)CCC1 [Compound D-10] is 2.42

log10(IC50) for CS(=O)(=O)Nc1cccc(Cc2cc(C(=O)NC3CC3)c(Nc3ccc(I)cc3F)c(F)c2F)c1F [Compound E-25] is 2.45

log10(IC50) for CCCNS(=O)(=O)Nc1nccc(Cn2cc(C(N)=O)c(Nc3ccc(I)cc3F)c(F)c2=O)c1F [Compound N-2] is 0.00

log10(IC50) for NC(=O)c1cc(Cc2cccc(NS(=O)(=O)C3CCC3)c2F)c(F)c(F)c1Nc1ccc(I)cc1F [Compound E-20] is 2.67

log10(IC50) for O=C(NC1CC1)c1cc(Cc2ccnc(NS(=O)(=O)NC3CC3)c2F)c(F)c(F)c1Nc1ccc(I)cc1F [Compound A-5] is 1.00

log10(IC50) for CONC(=O)c1cc(Cc2cccc(NS(=O)(=O)C3(C)CC3)c2F)c(F)c(F)c1Nc1ccc(I)cc1F [Compound E-5] is 1.28

log10(IC50) for CONC(=O)c1cc(Cc2cccc(NS(C)(=O)=O)c2F)c(F)c(F)c1Nc1ccc(I)cc1F [Compound E-26] is 1.11

log10(IC50) for Cn1c(Nc2ccc(I)cc2F)c(C(=O)NOC(C)(C)C)cc(Cc2cccc(NS(=O)(=O)C3(C)CC3)c2F)c1=O [Compound K-12] is 1.00
